// provenance: ChEMBL document CHEMBL1146304

This section lists IC50 readings for Glucocorticoid receptor (Homo sapiens).

MOLECULE	VALUE QUALIFIER	IC50 / nM
CC(Cc1c[nH]c2ccccc12)NC(=O)Nc1c(Cl)cc(Cl)cc1Cl (centres undefined)	>	2000
CC(Cc1c[nH]c2ccccc12)NS(=O)(=O)c1c(C(C)C)cc(C(C)C)cc1C(C)C (centres undefined)	=	67
CC(Cc1c[nH]c2ccccc12)NS(=O)(=O)c1ccc(C(C)(C)C)cc1 (centres undefined)	=	735
CC(Cc1c[nH]c2ccccc12)NS(=O)(=O)c1cccc(Cl)c1 (centres undefined)	=	4100
Cc1cc(C)c(S(=O)(=O)NC(C)Cc2c[nH]c3cc(C)ccc23)c(C)c1 (centres undefined)	=	490
CC(Cc1c[nH]c2ccccc12)NS(=O)(=O)c1ccccc1 (centres undefined)	>	10000
Cc1cc(C)c(CNC(C)Cc2c[nH]c3ccccc23)c(C)c1 (centres undefined)	>	2000
CC(Cc1c[nH]c2ccccc12)NS(=O)(=O)c1cc(Cl)cc(Cl)c1 (centres undefined)	=	4600
CC(Cc1c[nH]c2ccccc12)NS(=O)(=O)c1c(Cl)cccc1Cl (centres undefined)	=	240
Cc1ccc(S(=O)(=O)NC(C)Cc2c[nH]c3ccccc23)cc1 (centres undefined)	=	5700
CC(Cc1c[nH]c2ccccc12)NS(=O)(=O)c1cc(Cl)c(Cl)cc1Cl (centres undefined)	=	990
Cc1cccc(Cl)c1S(=O)(=O)NC(C)Cc1c[nH]c2ccccc12 (centres undefined)	=	280
Cc1cc(C)c(C(=O)NC(C)Cc2c[nH]c3ccccc23)c(C)c1 (centres undefined)	>	2000
CC(Cc1c[nH]c2ccccc12)NS(=O)(=O)c1c(Cl)cc(Cl)cc1Cl (centres undefined)	=	64
